# target system: mutant ALS protein of Sr line (Oryza sativa subsp. japonica)
# Construct: other: partially purified ALS, 30° C., probit analysis
# Sequence (Q6K2E8 whole entry W548L/S627I, form open): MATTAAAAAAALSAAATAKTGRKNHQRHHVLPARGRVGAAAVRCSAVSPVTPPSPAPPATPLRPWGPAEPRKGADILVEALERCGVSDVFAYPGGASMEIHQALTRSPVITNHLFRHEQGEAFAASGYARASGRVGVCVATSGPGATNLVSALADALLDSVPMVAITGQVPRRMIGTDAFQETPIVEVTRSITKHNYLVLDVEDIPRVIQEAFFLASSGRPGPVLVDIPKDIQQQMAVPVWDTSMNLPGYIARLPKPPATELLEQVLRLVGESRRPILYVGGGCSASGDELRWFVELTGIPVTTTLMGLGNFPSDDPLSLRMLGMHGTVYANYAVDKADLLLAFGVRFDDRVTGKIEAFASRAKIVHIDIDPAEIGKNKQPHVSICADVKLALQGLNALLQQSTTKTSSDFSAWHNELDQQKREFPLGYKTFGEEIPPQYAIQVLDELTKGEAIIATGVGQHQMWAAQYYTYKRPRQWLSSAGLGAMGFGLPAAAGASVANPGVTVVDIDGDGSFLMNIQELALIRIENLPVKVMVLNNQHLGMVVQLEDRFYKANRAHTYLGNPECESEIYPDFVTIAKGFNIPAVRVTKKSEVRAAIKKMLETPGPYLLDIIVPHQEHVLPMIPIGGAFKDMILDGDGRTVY
# assay summary: Herbicide sensitivity of partially purified ALS protein (ALS activity inhibition), Sr line
# Format: biochemical, Oryza sativa var. Kinmaze
# settings: read-out: I50 (nM) Sr; partially purified ALS, 30° C., probit analysis
The entries below come with measured IC50 values attached.
# output: bare number, implied unit nM

Solved entries:
Given the compound COc1nc(C)nc(NC(=O)NS(=O)(=O)c2ccccc2Cl)n1 [chlorsulfuron] , what is its reported IC50?
92.8

# lookup: IC50 of COc1cc(OC)nc(Oc2cccc(Oc3nc(OC)cc(OC)n3)c2C(=O)O)n1 [bispyribac-sodium]
421

***
If you can, please state the reported IC50 value of CC(C)C1(C)N=C(c2nc3ccccc3cc2C(=O)O)NC1=O (stereo not drawn) [imazaquin] .
16700

* * *

Listing: pIC50 of selected compounds
# target system: GST fusion P171H mutant ALS protein (Oryza sativa subsp. japonica, UniProt Q6K2E8, P171H)
# Construct: an expression vector having the full-length wild type ALS cDNA incorporated into the Eco RI site of pGEX-2T; made in house; host or cells: E. coli JM109, pGEX-2T(ALS P171H mutant); crude supernatant
# Sequence (Q6K2E8 44-644 P171H): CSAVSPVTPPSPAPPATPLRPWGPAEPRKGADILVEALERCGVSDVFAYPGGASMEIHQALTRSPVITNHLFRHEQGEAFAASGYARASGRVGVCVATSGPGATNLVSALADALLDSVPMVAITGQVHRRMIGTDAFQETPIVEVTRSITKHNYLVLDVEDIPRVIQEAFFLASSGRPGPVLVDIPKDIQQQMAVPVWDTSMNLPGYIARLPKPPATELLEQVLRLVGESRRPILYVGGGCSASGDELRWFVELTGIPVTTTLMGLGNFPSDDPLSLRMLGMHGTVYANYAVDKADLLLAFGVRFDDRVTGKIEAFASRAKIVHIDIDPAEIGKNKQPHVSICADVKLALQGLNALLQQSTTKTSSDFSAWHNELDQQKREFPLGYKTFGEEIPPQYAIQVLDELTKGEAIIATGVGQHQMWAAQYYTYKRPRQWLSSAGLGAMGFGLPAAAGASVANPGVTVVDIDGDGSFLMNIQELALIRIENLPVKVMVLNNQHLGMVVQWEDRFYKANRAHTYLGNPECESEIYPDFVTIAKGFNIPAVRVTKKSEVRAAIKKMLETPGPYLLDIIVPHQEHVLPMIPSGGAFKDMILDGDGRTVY
# assay summary: Herbicide sensitivity of ALS protein expressed in E. coli (crude enzyme solution), P171H
# Type: biochemical, rice (Oryza sativa var. Kinmaze)
Units for pIC50: none; it is -log10 of a concentration expressed in mol/L.

Name the recorded pIC50 for COc1cc(OC)nc(Oc2cccc(Oc3nc(OC)cc(OC)n3)c2C(=O)O)n1 [bispyribac-sodium] .
7.26

New cases:
Entry CC(C)C1(C)N=C(c2nc3ccccc3cc2C(=O)O)NC1=O (stereo not shown) [imazaquin] has what pIC50?
5.47

What does the data say about its pIC50? Entry: COc1cc(OC)nc(Sc2cccc(Cl)c2C(=O)O)n1 [pyrithiobac-sodium]
7.43

Name the reported pIC50 value associated with the compound COc1nc(C)nc(NC(=O)NS(=O)(=O)c2ccccc2Cl)n1 [chlorsulfuron]
5.96

* * *

# target system: GST fusion S627I mutant ALS protein (Oryza sativa subsp. japonica, UniProt Q6K2E8, S627I)
# Construct: an expression vector having the full-length wild type ALS cDNA incorporated into the Eco RI site of pGEX-2T; made in house; host or cells: E. coli JM109, pGEX 2T(ALS-S627I mutant); crude supernatant
# Sequence (Q6K2E8 44-644 S627I): as the sequence (Q6K2E8 44-644 P171H) above, with H128P, S584I counted along it
# assay summary: Herbicide sensitivity of ALS protein expressed in E. coli (crude enzyme solution), S627I
# Type: biochemical, rice (Oryza sativa var. Kinmaze)
reported property: pIC50
// returns pIC50 (minus log10 of molar concentration), number only

Requested read-out: pIC50. Entry: COc1cc(OC)nc(Sc2cccc(Cl)c2C(=O)O)n1 [pyrithiobac-sodium]
5.66

What pIC50 value was documented for this compound, COc1nc(C)nc(NC(=O)NS(=O)(=O)c2ccccc2Cl)n1 ?
7.51

Fill in the blank: the reported pIC50 of COc1cc(OC)nc(Oc2cccc(Oc3nc(OC)cc(OC)n3)c2C(=O)O)n1 [bispyribac-sodium] is ____.
6.59

Here is another compound to look at.
pIC50 lookup needed for CC(C)C1(C)N=C(c2nc3ccccc3cc2C(=O)O)NC1=O (stereo not shown) , thanks.
4.82

* * *

IC50 listing for selected compounds.
# target system: GST fusion P171H/R172S mutant ALS protein (Oryza sativa subsp. japonica, UniProt Q6K2E8, P171H/R172S)
# Construct: made in house; host or cells: E. coli JM109, pGEX-2T(ALS P171H, R172S mutant); crude supernatant
# Sequence (Q6K2E8 44-644 P171H/R172S): as the sequence (Q6K2E8 44-644 P171H) above, with R129S counted along it
# assay summary: Herbicide sensitivity of ALS protein expressed in E. coli (crude enzyme solution), P171H/R172S
# Type: biochemical, rice (Oryza sativa var. Kinmaze)
Write the answer as a number in nM, unit excluded.

Sample answers from the record:
Data request, read-out IC50, for COc1cc(OC)nc(Sc2cccc(Cl)c2C(=O)O)n1 [pyrithiobac-sodium]
140

Tell me the measured IC50 of COc1nc(C)nc(NC(=O)NS(=O)(=O)c2ccccc2Cl)n1 , please.
5500

More entries:
Any idea what its IC50 is? The compound is CC(C)C1(C)N=C(c2nc3ccccc3cc2C(=O)O)NC1=O (stereo not shown)
3900

Please give the measured IC50 for this compound: COc1cc(OC)nc(Oc2cccc(Oc3nc(OC)cc(OC)n3)c2C(=O)O)n1 [bispyribac-sodium]
48

* * *

# target system: mutant ALS protein of Vg line (Oryza sativa subsp. japonica, UniProt Q6K2E8)
# Construct: other: partially purified ALS, 30° C., probit analysis
# Sequence (Q6K2E8 whole entry W548L, form open): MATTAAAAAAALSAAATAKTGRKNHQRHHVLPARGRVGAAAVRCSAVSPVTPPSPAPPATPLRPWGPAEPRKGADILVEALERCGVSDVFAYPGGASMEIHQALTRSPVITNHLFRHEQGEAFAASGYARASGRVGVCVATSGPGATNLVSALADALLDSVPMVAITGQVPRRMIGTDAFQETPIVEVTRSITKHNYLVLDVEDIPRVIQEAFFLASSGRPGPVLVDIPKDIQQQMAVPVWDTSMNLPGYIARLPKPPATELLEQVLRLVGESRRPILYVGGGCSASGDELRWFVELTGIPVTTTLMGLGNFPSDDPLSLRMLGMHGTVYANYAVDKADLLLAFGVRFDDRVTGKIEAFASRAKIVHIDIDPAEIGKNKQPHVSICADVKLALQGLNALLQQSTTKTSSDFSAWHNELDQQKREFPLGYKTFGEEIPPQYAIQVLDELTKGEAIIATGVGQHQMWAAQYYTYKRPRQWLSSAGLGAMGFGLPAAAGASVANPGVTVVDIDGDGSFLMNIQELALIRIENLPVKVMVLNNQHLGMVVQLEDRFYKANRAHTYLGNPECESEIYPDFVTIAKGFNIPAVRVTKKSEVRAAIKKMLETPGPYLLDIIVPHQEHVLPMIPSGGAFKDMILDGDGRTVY
# assay summary: Herbicide sensitivity of partially purified ALS protein (ALS activity inhibition), Vg line
# Format: biochemical, Oryza sativa var. Kinmaze
# settings: read-out: I50 (nM) Vg; partially purified ALS, 30° C., probit analysis
reported property: IC50 (nM)
Give just the numeric value; nM need not be written.

Given COc1nc(C)nc(NC(=O)NS(=O)(=O)c2ccccc2Cl)n1 , state its recorded IC50.
495

New cases:
Request the reported IC50 associated with COc1cc(OC)nc(Oc2cccc(Oc3nc(OC)cc(OC)n3)c2C(=O)O)n1 [bispyribac-sodium]
97.2

If you can, please state the reported IC50 value of CC(C)C1(C)N=C(c2nc3ccccc3cc2C(=O)O)NC1=O (stereo not drawn) .
44100

* * *

# target system: GST fusion P171H/W548L mutant ALS protein (Oryza sativa subsp. japonica, UniProt Q6K2E8, P171H/W548L)
# Construct: made in house; host or cells: E. coli, pGEX-2T(ALS-P171H, W548L mutant); crude supernatant
# Sequence (Q6K2E8 44-644 P171H/W548L): as the sequence (Q6K2E8 44-644 P171H) above, with W505L counted along it
# assay summary: Herbicide sensitivity of ALS protein expressed in E. coli (crude enzyme solution), P171H/W548L
# Assay type: biochemical, rice (Oryza sativa var. Kinmaze)
# settings: P171H/W548L mutant; product of RS ratios of the 1-point mutants
Measured Predicted RS ratio values are reported for all entries that follow.

Can you share its Predicted RS ratio? I mean this compound: COc1cc(OC)nc(Oc2cccc(Oc3nc(OC)cc(OC)n3)c2C(=O)O)n1 [bispyribac-sodium]
4500

I am curious: what Predicted RS ratio value has been reported for COc1cc(OC)nc(Sc2cccc(Cl)c2C(=O)O)n1 [pyrithiobac-sodium] ?
>31000

Entry COc1nc(C)nc(NC(=O)NS(=O)(=O)c2ccccc2Cl)n1 : reported Predicted RS ratio = ?
65000

Predicted RS ratio for CC(C)C1(C)N=C(c2nc3ccccc3cc2C(=O)O)NC1=O (centres unmarked) ?
>68

Please report the recorded Predicted RS ratio for CON=C(C)c1cccc(Oc2nc(OC)cc(OC)n2)c1C(=O)O .
23000

* * *

# target system: GST fusion wild type ALS protein (Oryza sativa subsp. japonica)
# Construct: an expression vector having the full-length wild type ALS cDNA incorporated into the Eco RI site of pGEX-2T; crude supernatant
# Sequence (Q6K2E8 44-644): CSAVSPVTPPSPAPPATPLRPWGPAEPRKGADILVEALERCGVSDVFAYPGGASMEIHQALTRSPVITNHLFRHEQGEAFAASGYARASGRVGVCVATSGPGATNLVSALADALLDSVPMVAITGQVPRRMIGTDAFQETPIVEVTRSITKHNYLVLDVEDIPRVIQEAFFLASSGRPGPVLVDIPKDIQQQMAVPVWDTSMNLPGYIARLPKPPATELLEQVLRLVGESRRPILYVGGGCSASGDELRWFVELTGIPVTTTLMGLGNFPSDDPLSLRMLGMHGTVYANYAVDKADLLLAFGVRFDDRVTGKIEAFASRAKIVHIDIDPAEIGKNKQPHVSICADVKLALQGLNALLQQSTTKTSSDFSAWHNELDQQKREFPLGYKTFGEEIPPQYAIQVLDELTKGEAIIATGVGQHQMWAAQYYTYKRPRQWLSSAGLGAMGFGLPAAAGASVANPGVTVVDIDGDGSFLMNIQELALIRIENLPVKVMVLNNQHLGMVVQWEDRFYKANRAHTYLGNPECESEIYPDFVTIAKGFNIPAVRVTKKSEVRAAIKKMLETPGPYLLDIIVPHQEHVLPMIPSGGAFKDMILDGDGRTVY
# assay summary: Herbicide sensitivity of ALS protein expressed in E. coli (crude enzyme solution), wild type
# settings: 37° C., 30 minutes, 10 mM valine, read-out: I50
reported property: IC50 (nM)
Respond numerically; units are nM and should not be typed.

Requested field: IC50. Item: CON=C(C)c1cccc(Oc2nc(OC)cc(OC)n2)c1C(=O)O
8

* * *

# target system: GST fusion R172S mutant ALS protein (Oryza sativa subsp. japonica, UniProt Q6K2E8, R172S)
# Construct: an expression vector having the full-length wild type ALS cDNA incorporated into the Eco RI site of pGEX-2T; made in house; host or cells: E. coli JM109, pGEX-2T(ALS R172S mutant); crude supernatant
# Sequence (Q6K2E8 44-644 R172S): as the sequence (Q6K2E8 44-644 P171H) above, with H128P, R129S counted along it
# assay summary: Herbicide sensitivity of ALS protein expressed in E. coli (crude enzyme solution), R172S
# Assay type: biochemical, rice (Oryza sativa var. Kinmaze)
# settings: R172S mutant vs wild type
# Method: ALS activity resulting from the mutant ALS protein contained in the eluted fractions apportioned into each test tube for apportioning was measured as follows. A reaction solution to be used in a measurement reaction was prepared by mixing an eluted fraction to be measured with a solution comprising 20 mM sodium pyruvate, 0.5 mM TPP, 0.5 mM MgCl2, 10 μM FAD and 20 mM potassium phosphate buffer (pH 7.5). One ml of this reaction solution was used. […]
Examples of molecules with documented RS ratio follow.
Please reply with the value in numeric form only.

Record request: RS ratio value, item COc1cc(OC)nc(Sc2cccc(Cl)c2C(=O)O)n1 [pyrithiobac-sodium]
1

Looking for the measured RS ratio of CON=C(C)c1cccc(Oc2nc(OC)cc(OC)n2)c1C(=O)O , can you help?
1.2

New cases:
Give the measured RS ratio of COc1cc(OC)nc(Oc2cccc(Oc3nc(OC)cc(OC)n3)c2C(=O)O)n1 [bispyribac-sodium] .
0.98

Reported RS ratio, molecule COc1nc(C)nc(NC(=O)NS(=O)(=O)c2ccccc2Cl)n1 : ____
0.85

* * *

Catalogue of compounds with associated RS ratio/ predicted RS ratio
# target system: GST fusion P171H/S627I mutant ALS protein (Oryza sativa subsp. japonica, UniProt Q6K2E8, P171H/S627I)
# Construct: made in house; host or cells: E. coli, pGEX-2T(ALS-P171H, S627I mutant); crude supernatant
# Sequence (Q6K2E8 44-644 P171H/S627I): as the sequence (Q6K2E8 44-644 P171H) above, with S584I counted along it
# assay summary: Herbicide sensitivity of ALS protein expressed in E. coli (crude enzyme solution), P171H/S627I
# Assay type: biochemical, rice (Oryza sativa var. Kinmaze)
# settings: P171H/S627I mutant
# Method: ALS activity resulting from the mutant ALS protein contained in the eluted fractions apportioned into each test tube for apportioning was measured as follows. A reaction solution to be used in a measurement reaction was prepared by mixing an eluted fraction to be measured with a solution comprising 20 mM sodium pyruvate, 0.5 mM TPP, 0.5 mM MgCl2, 10 μM FAD and 20 mM potassium phosphate buffer (pH 7.5). One ml of this reaction solution was used. […]
Enter a number only.

Solved entries (count: 3):
Query (compound): COc1nc(C)nc(NC(=O)NS(=O)(=O)c2ccccc2Cl)n1 [chlorsulfuron] ; field requested: RS ratio/ predicted RS ratio
3.8

Any idea what its RS ratio/ predicted RS ratio is? The compound is CC(C)C1(C)N=C(c2nc3ccccc3cc2C(=O)O)NC1=O (centres unmarked) [imazaquin]
3.2

Give the measured RS ratio/ predicted RS ratio of COc1cc(OC)nc(Sc2cccc(Cl)c2C(=O)O)n1 [pyrithiobac-sodium] .
1.3

Further cases:
Please give the measured RS ratio/ predicted RS ratio for this compound: COc1cc(OC)nc(Oc2cccc(Oc3nc(OC)cc(OC)n3)c2C(=O)O)n1 [bispyribac-sodium]
10
